experiment: Half life in Balb/C mouse at 3 mg/kg, iv; assay type: ADME, organism-based; details: in vivo
measure: half-life (h)

mol_smiles=CC1(C)c2nc(-c3ccc(F)cc3)c(Nc3ccc(Cl)cc3)n2CCN1C(=O)CN unit_text=h numeric_readout=8.9

---

test: Selectivity index, ratio of EC50 for human HepG2 cells to EC50 for multidrug-resistant Plasmodium falciparum Dd2 at ring stage infected in A+ erythrocytes; assay type: toxicity, cell-based; conditions: read-out: Ratio EC50
measure: selectivity ratio

mol_smiles=CCN1CCN(Cc2ccc(NC(=O)c3cc(F)cc(NC(=O)c4cncc(-c5cccs5)c4)c3)cc2C(F)(F)F)CC1 measure="selectivity ratio" numeric_readout=50
mol_smiles=CCN1CCN(Cc2ccc(NC(=O)c3cc(Cl)cc(NC(=O)c4cnc(N)nc4)c3)cc2C(F)(F)F)CC1 measure="selectivity ratio" numeric_readout=27
mol_smiles=CCN1CCN(Cc2ccc(NC(=O)c3cc(Cl)cc(NC(=O)c4cncc(-c5cncs5)c4)c3)cc2C(F)(F)F)CC1 measure="selectivity ratio" numeric_readout=109
mol_smiles=CCN1CCN(Cc2ccc(NC(=O)c3cc(Cl)cc(NC(=O)c4cncc(-c5ccccc5)c4)c3)cc2C(F)(F)F)CC1 measure="selectivity ratio" numeric_readout=66
mol_smiles=CCN1CCN(Cc2ccc(NC(=O)c3cc(Cl)cc(NC(=O)c4cccnc4)c3)cc2C(F)(F)F)CC1 measure="selectivity ratio" numeric_readout=71
mol_smiles=CCN1CCN(Cc2ccc(NC(=O)c3cc(NC(=O)c4cncc(-c5cccs5)c4)c(C)cc3F)cc2C(F)(F)F)CC1 measure="selectivity ratio" numeric_readout=2.6
mol_smiles=CCN1CCN(Cc2ccc(NC(=O)c3cc(Cl)cc(NC(=O)c4cncc(-c5cccs5)c4)c3)cc2)CC1 measure="selectivity ratio" numeric_readout=108
mol_smiles=CCN1CCN(Cc2ccc(NC(=O)c3cc(Cl)cc(NC(=O)c4cncc(-c5ccc(C#N)cc5)c4)c3)cc2C(F)(F)F)CC1 measure="selectivity ratio" numeric_readout=41

The values you see were collected from ChEMBL document CHEMBL5537177.
